# System Name: recombinant PRL-1 (Homo sapiens, UniProt Q93096)
# Construct: 6xHis (N, cleaved yes); made in house; host or cells: E. coli One Shot BL21 Star
# Sequence (Q93096 whole entry): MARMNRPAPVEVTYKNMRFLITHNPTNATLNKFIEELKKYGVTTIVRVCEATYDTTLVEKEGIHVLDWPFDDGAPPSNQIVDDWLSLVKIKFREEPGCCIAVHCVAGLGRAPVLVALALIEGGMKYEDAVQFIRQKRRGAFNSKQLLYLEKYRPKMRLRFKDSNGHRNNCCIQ
# Protocol Details: In vitro phosphatase assay (DiFMUP hydrolysis), PRL-1; also: test concentration or dose not given here
# Type: biochemical
# Condition Label: FDA-approved drug screen; compared to DMSO
Where a name gives a salt, the structure may show the parent alone.
Overview of reported % Phosphatase Activity (compared to DMSO) PRL-1 across a group of compounds:
Readout Kind: % Phosphatase Activity (compared to DMSO) PRL-1 (%)

Compound: O=C(/C=C/c1cccc(S(=O)(=O)Nc2ccccc2)c1)NO
System Name: recombinant PRL-1 (Homo sapiens, UniProt Q93096)
Endpoint Value: 98

Compound: COCCCC/C(=N\OCCN)c1ccc(C(F)(F)F)cc1 [Fluvoxamine maleate]
System Name: recombinant PRL-1 (Homo sapiens, UniProt Q93096)
Endpoint Value: 88

Compound: CCOC(=O)c1ccc(OC(=O)CCCCCN=C(N)N)cc1.CS(=O)(=O)O [Gabexate Mesylate]
System Name: recombinant PRL-1 (Homo sapiens, UniProt Q93096)
Endpoint Value: 93

Compound: CCC1(c2ccccc2)C(=O)NCNC1=O
System Name: recombinant PRL-1 (Homo sapiens, UniProt Q93096)
Endpoint Value: 84

Compound: COc1ccccc1Oc1c(NS(=O)(=O)c2ccc(C(C)(C)C)cc2)nc(-c2ncccn2)nc1OCCO [Bosentan Hydrate]
System Name: recombinant PRL-1 (Homo sapiens, UniProt Q93096)
Endpoint Value: 87

Compound: Cc1nnc(SCC2=C(C(=O)O)N3C(=O)[C@@H](NC(=O)Cn4cnnn4)[C@H]3SC2)s1 [Cefazolin Sodium]
System Name: recombinant PRL-1 (Homo sapiens, UniProt Q93096)
Endpoint Value: 97

Compound: COc1ccc2[nH]cc(CCNC(C)=O)c2c1
System Name: recombinant PRL-1 (Homo sapiens, UniProt Q93096)
Endpoint Value: 125

Compound: CCC(=O)OCC(=O)[C@@]1(OC(=O)CC)[C@@H](C)C[C@H]2[C@@H]3CCC4=CC(=O)C=C[C@]4(C)[C@@]3(F)[C@@H](O)C[C@@]21C [Betamethasone Dipropionate]
System Name: recombinant PRL-1 (Homo sapiens, UniProt Q93096)
Endpoint Value: 92
